I'd be grateful if you could share measured IC50 for these entries.
Please give the number followed by its unit.

The measured IC50 that `CO[C@H]1C[C@@H]2CC[C@@H](C)[C@@](O)(O2)C(=O)C(=O)N2CCCC[C@H]2C(=O)O[C@H]([C@H](C)C[C@@H]2CC[C@@H](O)[C@H](OC)C2)CC(=O)[C@H](C)/C=C(\C)[C@@H](O)[C@@H](OC)C(=O)[C@H](C)C[C@H](C)/C=C/C=C/C=C/1C` showed for UniProt:P11712 is 2 µM

The measured IC50 that `COc1cc(N)nc2[nH]c(-c3ccc(F)cc3)c(-c3ccncc3)c12` showed for UniProt:P11712 is 1 µM

The measured IC50 that CC(=O)O[C@]1(C(C)=O)CC[C@H]2[C@@H]3C=C(C)C4=CC(=O)CC[C@]4(C)[C@H]3CC[C@@]21C [MEGESTROL ACETATE] showed for UniProt:P11712 is 10 µM

The measured IC50 that `O=C(c1ccccc1Cl)N1CCC(Cc2ccccc2)CC1` showed for UniProt:P11712 is 2 µM

The measured IC50 that `COc1cc(C(=O)NS(=O)(=O)c2ccccc2C)ccc1Cc1cn(C)c2ccc(NC(=O)OC3CCCC3)cc12` showed for UniProt:P11712 is 2.26 µM

###

- Assay Comment: DRUGMATRIX: Tumor Necrosis Factor (TNF), Non-Selective radioligand binding (ligand: [125I] TNF-alpha)
- Type: cell membranes, Membrane
- Cond: u-937; Not Active = under 50% inhibition at 10 µM
Quantity Kind: IC50

Worked examples, 4 compounds total:
# Compound, IC50
measured = [
    ("CC[C@H](C)C(=O)O[C@H]1C[C@@H](C)C=C2C=C[C@H](C)[C@H](CC[C@@H]3C[C@@H](O)CC(=O)O3)[C@H]21", "Not Active"),
    ("O=C(/C=C/c1ccc(O)c(O)c1)OCCc1ccccc1", "Not Active"),
    ("CCC(=O)O[C@H]1[C@H](O[C@@H]2[C@@H](C)[C@H](O[C@H]3C[C@@](C)(OC)[C@@H](O)[C@H](C)O3)[C@@H](C)C(=O)O[C@H](CC)[C@@](C)(O)[C@H](O)[C@@H](C)C(=O)[C@H](C)C[C@@]2(C)O)O[C@H](C)C[C@@H]1N(C)C [ERYTHROMYCIN PROPIONATE]", "Not Active"),
    ("CC(C(=O)O)c1ccc(CC2CCCC2=O)cc1 (centres undefined)", "Not Active"),
]

Lab note: `CC(=O)OCC(CCn1cnc2cnc(N)nc21)COC(C)=O` gave IC50 of Not Active

Lab note: `CN[C@@H]1[C@H](O)[C@H](NC)[C@H]2O[C@@]3(O)C(=O)C[C@@H](C)O[C@H]3O[C@@H]2[C@H]1O` gave IC50 of Not Active

Lab note: `OCCO` gave IC50 of Not Active

Lab note: `CO[C@@]1(NC(=O)CSCC#N)C(=O)N2C(C(=O)O)=C(CSc3nnnn3C)CS[C@@H]21` gave IC50 of Not Active

Lab note: `CC(C)(C)NC[C@H](O)COc1nsnc1N1CCOCC1` gave IC50 of Not Active

Lab note: `CC[C@H](C)C(=O)O[C@H]1C[C@H](O)C=C2C=C[C@H](C)[C@H](CC[C@@H](O)C[C@@H](O)CC(=O)O)[C@H]21` gave IC50 of Not Active

Lab note: CC(=O)O[C@H]1C[C@@H]2CC[C@@H]3[C@H](CC[C@@]4(C)[C@H]3C[C@H]([N+]3(C)CCCCC3)[C@@H]4OC(C)=O)[C@@]2(C)C[C@@H]1N1CCCCC1.[Br-] [VECURONIUM BROMIDE] gave IC50 of Not Active

Lab note: `CCc1oc2ccccc2c1C(=O)c1cc(Br)c(O)c(Br)c1` gave IC50 of Not Active

Lab note: C[C@]12CCC(=O)C=C1CC[C@@H]1[C@@H]2[C@@H](O)C[C@@]2(C)[C@H]1CC[C@]2(O)C(=O)CO [HYDROCORTISONE] gave IC50 of Not Active

Lab note: `CN1C(=O)CN=C(c2ccccc2)c2cc(Cl)ccc21` gave IC50 of Not Active
